The measurements presented in this section are drawn from patent US20050182242A1.

# System: PI(3,4,5)P3 liposomes
# method: Yeast proteome chip probed with PI(3,4,5)P3 liposomes
# recorded conditions: liposome binding signal on yeast proteome chip, Cy3-streptavidin detection
reported endpoint: PI(3, 4, 5)P3

# annotated cases, reported PI(3, 4, 5)P3 shown
molecule="MET8: yeast GST-HisX6 fusion protein on proteome chip (protein, left off: a dimerising Fc or GST, yeast GST-HisX6 fusion protein on proteome chip) MVKSLQLAHQLKDKKILLIGGGEVGLTRLYKLIPTGCKLTLVSPDLHKSIIPKFGKFIQNEDQPDYREDAKRFINPNWDPTKNEIYEYIRSDFKDEYLDLEDENDAWYIIMTCIPDHPESARIYHLCKERFGKQQLVNVADKPDLCDFYFGANLEIGDRLQILISTNGLSPRFGALVRDEIRNLFTQMGDLALEDAVVKLGELRRGIRLLAPDDKDVKYRMDWARRCTDLFGIQHCHNIDVKRLLDLFKVMFQEQNCSLQFPPRERLLSEYCSS" reported_endpoint="PI(3, 4, 5)P3" result=25.42
molecule="APA2: yeast GST-HisX6 fusion protein on proteome chip (protein, UniProt P22108 1-325, looked up, GST-His6 fusion tag, yeast GST-HisX6 fusion protein on proteome chip) Diadenosine …: MIEENLKQKIHDKFVAAKKNGHLKVTHAESKKLKDPQTTTQYWVTFAPSLALKPDANKNSDSKAEDPFANPDEELVVTEDLNGDGEYKLLLNKFPVVPEHSLLVTSEFKDQRSALTPSDLMTAYNVLCSLQGDKDDDVTCERYLVFYNCGPHSGSSQDHKHLQIMQMPEKFIPFQDVLCNGKDHFLPTFNAEPLQDDKVSFAHFVLPLPESSDQVDEDLLAMCYVSLMQRALTFFQDWTNESPELTKSYNVLLTKKWICVVPRSHAKSGPPLMLNINSTGYCGMILVKDREKLENLTEDPHLVDKSLLQCGFPNTAGQKPTEYHY" reported_endpoint="PI(3, 4, 5)P3" result=40.05
molecule="TFB3: yeast GST-HisX6 fusion protein on proteome chip (protein, UniProt Q03290 1-321, looked up, GST-His6 tag, yeast GST-HisX6 fusion protein on proteome chip) RNA polymerase II …: MLMDEYEENKDMCPICKTDRYLSPDVKFLVNPECYHRICESCVDRIFSLGPAQCPYKGCDKILRKNKFKTQIFDDVEVEKEVDIRKRVFNVFNKTIDDFNGDLVEYNKYLEEVEDIIYKLDHGIDVAKTEEKLRTYEELNKQLIMNNLERSRTEIESFEQRQKFEKEMKLKKRLLERQIEEEERMNKEWTKKEIVNRLSTTTQDINETIEGVKNTVKLKKSSARRKLEELNRVLKNNPYFNSNVNVQNSRLKDAVPFTPFNGDREAHPRFTLKGSVYNDPFIKDLEHRKEFIASGFNTNYAYERVLTEAFMGLGCVISEEL" reported_endpoint="PI(3, 4, 5)P3" result=27.45

Exercise: Reported PI(3, 4, 5)P3 for PEX4: yeast GST-HisX6 fusion protein on proteome chip (protein, UniProt P29340 1-183, looked up, GST-His6 tag, yeast GST-HisX6 fusion protein on proteome chip) Ubiquitin-conjugating enzyme …: MPNFWILENRRSYTSDTCMSRIVKEYKVILKTLASDDPIANPYRGIIESLNPIDETDLSKWEAIISGPSDTPYENHQFRILIEVPSSYPMNPPKISFMQNNILHCNVKSATGEICLNILKPEEWTPVWDLLHCVHAVWRLLREPVCDSPLDVDIGNIIRCGDMSAYQGIVKYFLAERERINNH : what is it?
Solution: 21.49
